Listed here are compounds together with their documented inhibition at 10 µM.
EXPERIMENTAL_TARGET: 5-HT2c (Homo sapiens, UniProt P28335)
Construct: purchased Euroscreen/BioSignal Packard Inc
Sequence (P28335 33-458): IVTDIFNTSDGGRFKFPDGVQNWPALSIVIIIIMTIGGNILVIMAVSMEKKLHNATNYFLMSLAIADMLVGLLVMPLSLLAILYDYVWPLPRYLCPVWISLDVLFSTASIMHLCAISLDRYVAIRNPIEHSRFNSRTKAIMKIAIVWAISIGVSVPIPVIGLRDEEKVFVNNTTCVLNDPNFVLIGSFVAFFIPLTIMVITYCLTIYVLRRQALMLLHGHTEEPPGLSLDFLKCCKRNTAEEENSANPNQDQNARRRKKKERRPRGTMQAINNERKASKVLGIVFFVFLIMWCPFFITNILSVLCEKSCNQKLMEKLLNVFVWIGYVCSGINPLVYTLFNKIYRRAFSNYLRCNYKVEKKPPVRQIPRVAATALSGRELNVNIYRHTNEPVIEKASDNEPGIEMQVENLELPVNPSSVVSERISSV
ASSAY_PROTOCOL: Radioligand binding, 5-HT2c ([3H]Mesulergine)
CONDITION_CONTEXT: read-out: Binding affinity (Inhibition rate % at 10 μM) 5HT2c
Method: Radioligand bindings were performed according to the test method provided by the supplier of receptor membrane (Euroscreen/BioSignal Packard Inc.).

Some compounds with recorded inhibition at 10 µM:
COc1ccc(C2(C)C(=O)Nc3ccccc3C2=O)cc1 (centres unmarked) [Example 33]
13.5%
COc1cc2c(c(OC)c1)C(=O)C(C)(c1ccccc1)C(=O)N2 (centres unmarked) [Example 8]
23.9%
CC1(c2ccccc2)C(=O)Nc2ccccc2C1=O (centres unmarked) [Example 2, 3-methyl-3-phenyl-1H-quinoline-2,4-dione]
30.6%
COc1ccc(C2(C)C(=O)Nc3cc(Cl)cc(Cl)c3C2=O)cc1 (centres unmarked) [Example 12]
5.7%

// below: inhibition at 10 µM requested for another compound
Query :: Dear colleague, I am looking for the recorded inhibition at 10 µM of the following compound: CC1(c2ccc(OCc3ccccc3)c(Br)c2)C(=O)Nc2cc(Cl)cc(Cl)c2C1=O (centres unmarked) [Example 23]
Result :: 21.9%

====

Each item that follows carries a reported inhibition at 10 µM.
EXPERIMENTAL_TARGET: human serotonin 5-HT6 receptor (Homo sapiens, UniProt P50406)
Construct: made in house; host or cells: Sf21 insect cells (pBacPAK8 baculovirus vector)
Sequence (P50406 whole entry): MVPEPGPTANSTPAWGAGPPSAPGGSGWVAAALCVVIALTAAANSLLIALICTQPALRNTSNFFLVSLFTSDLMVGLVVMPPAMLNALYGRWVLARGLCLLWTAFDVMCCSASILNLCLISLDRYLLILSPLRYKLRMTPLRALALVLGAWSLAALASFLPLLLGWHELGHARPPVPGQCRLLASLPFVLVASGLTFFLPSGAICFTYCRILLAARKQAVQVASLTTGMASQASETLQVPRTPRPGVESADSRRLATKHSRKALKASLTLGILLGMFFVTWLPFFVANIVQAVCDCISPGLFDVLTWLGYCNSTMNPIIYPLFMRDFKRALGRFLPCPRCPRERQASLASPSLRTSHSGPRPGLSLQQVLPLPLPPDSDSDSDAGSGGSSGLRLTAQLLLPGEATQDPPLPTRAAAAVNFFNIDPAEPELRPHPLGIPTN
ASSAY_PROTOCOL: [3H]LSD binding at cloned 5-HT6 receptors
CONDITION_CONTEXT: read-out: Binding affinity (Inhibition rate % at 10 μM) 5HT6
Answer format: number, then unit.

Query :: Under human serotonin 5-HT6 receptor (Homo sapiens, UniProt P50406): inhibition at 10 µM value of CC1(c2ccc(Br)cc2Br)C(=O)Nc2cc(Cl)ccc2C1=O (stereo not drawn) ?
Result :: 66%

Query :: Subsequent entry: CC1(c2ccccc2)C(=O)Nc2ccccc2C1=O (stereo not drawn)
Result :: 73.2%

Query :: Please give the result for CC1(c2ccc(O)c(N)c2)C(=O)Nc2c(Br)cc(Br)cc2C1=O (stereo not drawn) too.
Result :: 69.2%
